# test_target: Virion infectivity factor (Human immunodeficiency virus type 1 group M subtype B (isolate BH10)) + Virion infectivity factor (Human immunodeficiency virus type 1 group M subtype B (isolate BRU/LAI)) + Virion infectivity factor (Human immunodeficiency virus type 1 group M subtype B (isolate PCV12)) + Virion infectivity factor (Human immunodeficiency virus type 1 group M subtype B (isolate HXB2)) + DNA dC->dU-editing enzyme APOBEC-3G (Homo sapiens) (UniProt P69720+P69721+P69722+P69723+Q9HC16)
# protocol_text: inhibitors of Vif binding to APOBEC3G peptide, primary screen, biochemical, TR-FRET, GST-Vif 1-94, biotin-A3G peptide, dose response retest (AID 1117319);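 note: Vif residues 1-94 fused to GST binding biotinylated APOBEC3G peptide 110-148; 0% = full assay without inhibitor and 100% = GST in place of GST-Vif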
# study_conditions: stronger effect = higher value
Hit rate of the full screen: of about 260,000 compounds, about 1,500 (0.58%) were called active. Inconclusive results (about 5%) are left out. These entries were drawn from the full list. Measured potencies and affinities stand elsewhere.
parameter_measured: inhibition (%)
Express your answer in %, writing the number without its unit.

NC(=S)NCc1cccnc1 :: -0.39
C/C(=N\NC(=S)NCc1ccccc1)c1ccc(C(C)(C)C)cc1 :: 9.19
CN(CC(=O)Nc1ccccc1N1CCOCC1)S(=O)(=O)c1ccc(F)cc1 :: 4.33
CC(NC(=O)c1ccc(Cn2cc([N+](=O)[O-])cn2)cc1)c1ccccc1 (stereo not drawn) :: -7.96
Cc1ccc(NC(=O)CCC(=O)N/N=C/c2cccs2)cc1C :: -6.77
CCCCCC(=O)N1C[C@H](n2cc(C3CC3)nn2)[C@@H](O)C[C@@H]1c1ccc(C)cc1 :: -2.78

Consider Cc1ccc2c(CC(=O)OCc3csc(C)n3)coc2c1 . Its measured inhibition is 11.1

Measured inhibition, CCOc1ccc(NC2=CC(=O)C(=O)c3ccccc32)cc1 : 3.36

###

# test_target: Virion infectivity factor (Human immunodeficiency virus type 1 group M subtype B (isolate BH10)) + Virion infectivity factor (Human immunodeficiency virus type 1 group M subtype B (isolate BRU/LAI)) + Virion infectivity factor (Human immunodeficiency virus type 1 group M subtype B (isolate PCV12)) + Virion infectivity factor (Human immunodeficiency virus type 1 group M subtype B (isolate HXB2)) + DNA dC->dU-editing enzyme APOBEC-3G (Homo sapiens) (UniProt P69720+P69721+P69722+P69723+Q9HC16)
# protocol_text: inhibitors of Vif binding to APOBEC3G peptide, primary screen, biochemical, TR-FRET, GST-Vif 1-94, biotin-A3G peptide, dose response retest (AID 1117319);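 note: Vif residues 1-94 fused to GST binding biotinylated APOBEC3G peptide 110-148; 0% = full assay without inhibitor and 100% = GST in place of GST-Vif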
# study_conditions: stronger effect = higher value
Among all 260,000 compounds or so, about 1,500 (0.58%) were called active. Not shown: some 5% with an inconclusive outcome. Not all results are given here. Measured potencies and affinities stand elsewhere.
Catalogue of inhibition values

# example entries with known answers
N#Cc1csc(CCNC(=O)c2ccccc2)n1 :: -7.18% (inactive)
O=C(/C=C/c1ccc(F)cc1)c1cc(Br)ccc1O :: -1.23% (inactive)
COC(=O)Cn1cnc2c(nnn2-c2ccc(OC)cc2)c1=O :: -8.1% (inactive)
O=C(c1ccc(S(=O)(=O)N2CCCCCC2)cc1)N1CCN(c2ccccn2)CC1 :: -5.37% (inactive)
CN(C)CCCNC(=O)C[C@H]1C[C@H](C(=O)N2CCCCC2)[C@@]2(CCc3ccccc3)c3[nH]c4ccc(Cl)cc4c3CCN2C1=O :: 3.82% (inactive)

Please fill in: inhibition reported for O=C(O)CCCNC(=O)OCc1ccccc1 = -2.72% (inactive)

inhibition reported for this compound O=C(CNC(=O)c1ccc(Br)cc1)N/N=C/c1ccc[nH]1 : -7.5% (inactive)

Per the record, Cc1ccc(CN2C(=O)c3ccccc3NC2c2cc(Br)ccc2O)cc1 (centres undefined) has inhibition of -3.39% (inactive)

Per the record, CCOc1ccccc1C(=O)NCC(=O)NCCc1ccc(S(N)(=O)=O)cc1 has inhibition of 0.59% (inactive)

###

inhibition for assorted molecules
# test_target: Virion infectivity factor (Human immunodeficiency virus type 1 group M subtype B (isolate BH10)) + Virion infectivity factor (Human immunodeficiency virus type 1 group M subtype B (isolate BRU/LAI)) + Virion infectivity factor (Human immunodeficiency virus type 1 group M subtype B (isolate PCV12)) + Virion infectivity factor (Human immunodeficiency virus type 1 group M subtype B (isolate HXB2)) + DNA dC->dU-editing enzyme APOBEC-3G (Homo sapiens) (UniProt P69720+P69721+P69722+P69723+Q9HC16)
# protocol_text: inhibitors of Vif binding to APOBEC3G peptide, primary screen, biochemical, TR-FRET, GST-Vif 1-94, biotin-A3G peptide, dose response retest (AID 1117319);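 note: Vif residues 1-94 fused to GST binding biotinylated APOBEC3G peptide 110-148; 0% = full assay without inhibitor and 100% = GST in place of GST-Vif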
# study_conditions: stronger effect = higher value
In all, about 260,000 compounds went through this assay and about 1,500 (0.58%) were called active. Not shown: some 5% with an inconclusive outcome. These entries were drawn from the full list. Measured potencies and affinities stand elsewhere.

Please review the entries below; each comes with its answer.
COc1ccc(NCc2n[nH]c(=O)c3ccccc23)cc1 :: 4.49% (inactive)
Cc1cc(C)cc(OCc2ccc(C(=O)O)o2)c1 :: 9.08% (inactive)
Cc1ccc2nc(SCC(=O)N3CCN(c4ccccc4)CC3)[nH]c2c1 :: -0.39% (inactive)
O=C(CCSc1ccccc1)N1CCN(c2ccccc2)CC1 :: -3.65% (inactive)
CCn1c(SCC(=O)N2CCN(c3ccccc3)CC2)nnc1-c1ccoc1C :: 7.37% (inactive)

The molecule Cn1cccc1C(=O)NC(=O)COC(=O)CC12CC3CC(CC(C3)C1)C2 showed inhibition equal to -0.55% (inactive)

According to the records, this molecule CCOC(=O)N1CCN(S(=O)(=O)c2ccc(OC)c(Cl)c2Cl)CC1 displays inhibition of 3.84% (inactive)

Form field inhibition, entry Cc1cccc(N2CCN(C(=O)CCNS(=O)(=O)c3ccc4c(c3)CCC(=O)N4)CC2)c1C : -0.88% (inactive)

// field: inhibition; key: Cn1cccc1C(=O)NC(=O)COC(=O)C12CC3CC(CC(O)(C3)C1)C2 ; value = 9.63% (inactive)

Lab book: inhibition of Cc1occc1-c1nnc(SCC(=O)N2CCN(c3ccc(F)cc3)CC2)n1C noted as 8.11% (inactive)

Item: CCCCn1c(SCC(N)=O)nnc1-c1ccco1 | inhibition: 3.37% (inactive)

The value of inhibition measured for the molecule CNC(=O)COC(=O)c1[nH]c(C)c(C(C)=O)c1C turned out to be 1.68% (inactive)

Form: molecule = O=c1[nH]nc(CNc2ccc(C(F)(F)F)cc2)c2ccccc12 ; inhibition = -3.84% (inactive)

Briefly, inhibition measured for C=C(c1ccc(OC)cc1)c1ccc(OC)cc1 : 13.2% (inactive)

inhibition reported for this molecule COc1ccc(Br)cc1/C=N/NC(=O)c1cccnc1 : 4.05% (inactive)

Form: molecule = CC(C)NC(=O)C1CCN(C2CCN(Cc3nc(C(C)C)cs3)CC2)CC1 ; inhibition = 10.5% (inactive)

Just so you know, measured inhibition for COc1ccc(N2CCN(C(=O)CSc3ccccc3)CC2)cc1 came out at 30.3% (inactive)

Measured inhibition of O=C(/C=C/c1ccc(F)cc1)Nc1cccc(S(=O)(=O)N2CCOCC2)c1 : -3.16% (inactive)

molecule Cc1cnc(NC(=O)/C=C/c2ccc(Br)o2)s1 , inhibition observed: 20.7% (inactive)

Cc1ccc(C2C3=C(CCCC3=O)Nc3[nH]c(=S)[nH]c(=O)c32)cc1 (stereo not drawn) has a reported inhibition of 15.3% (inactive)

Input Cc1ccc(/C=C/C(=O)Nc2ccncc2)o1 . Output inhibition: 26.1% (inactive)

Summary for this molecule, O=C(O)c1sc(C(=O)O)c(-c2ccccc2)c1-c1ccccc1 : inhibition is 2.28% (inactive)

// sample Cc1cccc2c1NC(=O)C2(O)N1CCCC(C)C1 (stereo not drawn) , its inhibition was 7.4% (inactive)

###

# test_target: Virion infectivity factor (Human immunodeficiency virus type 1 group M subtype B (isolate BH10)) + Virion infectivity factor (Human immunodeficiency virus type 1 group M subtype B (isolate BRU/LAI)) + Virion infectivity factor (Human immunodeficiency virus type 1 group M subtype B (isolate PCV12)) + Virion infectivity factor (Human immunodeficiency virus type 1 group M subtype B (isolate HXB2)) + DNA dC->dU-editing enzyme APOBEC-3G (Homo sapiens) (UniProt P69720+P69721+P69722+P69723+Q9HC16)
# protocol_text: inhibitors of Vif binding to APOBEC3G peptide, primary screen, biochemical, TR-FRET, GST-Vif 1-94, biotin-A3G peptide, dose response retest (AID 1117319);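 note: Vif residues 1-94 fused to GST binding biotinylated APOBEC3G peptide 110-148; 0% = full assay without inhibitor and 100% = GST in place of GST-Vif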
# study_conditions: stronger effect = higher value
Out of some 260,000 compounds screened, about 1,500 (0.58%) were called active. Not shown: some 5% with an inconclusive outcome. A selection follows. Entries with a potency or affinity are not part of this list.
parameter_measured: inhibition (%)
Value expressed in %; do not type the unit.

For orientation, consider the following solved cases.
O=C(O)CC(Cn1[nH]nnc1=S)c1ccccc1 (stereo unspecified) :: -2.23
COc1ccc(N2CCN(Cc3nc4c(c(=O)[nH]c(=O)n4C)n3CC(C)=O)CC2)cc1 :: 8.98
O=C1Cc2cc(O)ccc2O1 :: -1.58
CCOC(CNC(=O)c1cccc([N+](=O)[O-])c1)OCC :: 8.25
CCOC(=O)N1CCN(S(=O)(=O)c2ccc(C)c(C(=O)NC3CCCCC3)c2)CC1 :: 5.81

# ---- query compound ----
What the record says about O=C(c1ccco1)N1CCN(Cc2cc(=O)c(OCc3ccccc3Cl)co2)CC1 : inhibition is -9.22
